Recorded IC50 by entry
- assay-system: Intercellular adhesion molecule (ICAM-1), Integrin alpha-L/beta-2 (Homo sapiens, UniProt P05107+P20701)
- Sequence (P20701 whole entry): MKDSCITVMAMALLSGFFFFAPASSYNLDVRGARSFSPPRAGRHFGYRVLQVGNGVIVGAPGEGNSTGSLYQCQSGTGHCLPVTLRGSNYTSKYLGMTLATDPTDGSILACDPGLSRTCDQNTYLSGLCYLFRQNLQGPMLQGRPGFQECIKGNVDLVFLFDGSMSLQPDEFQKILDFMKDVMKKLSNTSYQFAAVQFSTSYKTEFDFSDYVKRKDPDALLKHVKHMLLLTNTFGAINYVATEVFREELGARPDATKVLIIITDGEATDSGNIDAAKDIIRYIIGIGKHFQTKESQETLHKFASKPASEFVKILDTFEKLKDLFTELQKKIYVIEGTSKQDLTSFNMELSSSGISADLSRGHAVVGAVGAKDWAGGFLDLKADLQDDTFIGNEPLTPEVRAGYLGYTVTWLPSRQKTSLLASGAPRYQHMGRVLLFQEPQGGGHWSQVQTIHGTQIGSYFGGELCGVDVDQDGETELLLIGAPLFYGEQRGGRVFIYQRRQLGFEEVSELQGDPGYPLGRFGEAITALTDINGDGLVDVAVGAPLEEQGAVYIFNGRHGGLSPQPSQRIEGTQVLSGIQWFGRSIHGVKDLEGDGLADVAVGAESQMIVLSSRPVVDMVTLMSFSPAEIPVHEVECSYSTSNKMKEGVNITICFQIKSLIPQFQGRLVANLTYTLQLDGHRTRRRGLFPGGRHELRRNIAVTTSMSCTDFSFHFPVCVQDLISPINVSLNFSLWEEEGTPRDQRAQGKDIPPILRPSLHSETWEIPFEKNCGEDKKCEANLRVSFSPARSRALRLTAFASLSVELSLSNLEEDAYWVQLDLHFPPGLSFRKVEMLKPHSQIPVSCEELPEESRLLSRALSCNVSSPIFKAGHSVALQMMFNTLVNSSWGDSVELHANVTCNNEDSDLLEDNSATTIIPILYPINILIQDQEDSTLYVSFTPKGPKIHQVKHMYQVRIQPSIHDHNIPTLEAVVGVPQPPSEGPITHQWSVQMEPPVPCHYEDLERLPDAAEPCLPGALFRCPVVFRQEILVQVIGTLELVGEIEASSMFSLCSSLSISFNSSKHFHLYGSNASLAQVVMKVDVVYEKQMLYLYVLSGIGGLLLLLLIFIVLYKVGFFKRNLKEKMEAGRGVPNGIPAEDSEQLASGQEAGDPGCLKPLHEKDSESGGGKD
- Sequence (P05362 whole entry, further chain): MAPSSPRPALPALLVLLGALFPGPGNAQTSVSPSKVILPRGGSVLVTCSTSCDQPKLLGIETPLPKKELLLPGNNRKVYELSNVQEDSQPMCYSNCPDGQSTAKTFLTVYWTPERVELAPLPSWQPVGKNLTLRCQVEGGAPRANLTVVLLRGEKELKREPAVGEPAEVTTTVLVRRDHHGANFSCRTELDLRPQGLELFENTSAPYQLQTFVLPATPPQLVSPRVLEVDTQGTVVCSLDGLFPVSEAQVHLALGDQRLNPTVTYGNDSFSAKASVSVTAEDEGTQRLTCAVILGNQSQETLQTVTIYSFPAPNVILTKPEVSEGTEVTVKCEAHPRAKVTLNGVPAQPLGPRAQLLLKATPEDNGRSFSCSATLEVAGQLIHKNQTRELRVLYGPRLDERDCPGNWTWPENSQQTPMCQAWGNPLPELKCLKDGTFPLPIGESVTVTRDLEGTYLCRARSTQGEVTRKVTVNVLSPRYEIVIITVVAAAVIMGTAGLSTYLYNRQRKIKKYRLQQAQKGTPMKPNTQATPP
- Sequence (P05107 whole entry): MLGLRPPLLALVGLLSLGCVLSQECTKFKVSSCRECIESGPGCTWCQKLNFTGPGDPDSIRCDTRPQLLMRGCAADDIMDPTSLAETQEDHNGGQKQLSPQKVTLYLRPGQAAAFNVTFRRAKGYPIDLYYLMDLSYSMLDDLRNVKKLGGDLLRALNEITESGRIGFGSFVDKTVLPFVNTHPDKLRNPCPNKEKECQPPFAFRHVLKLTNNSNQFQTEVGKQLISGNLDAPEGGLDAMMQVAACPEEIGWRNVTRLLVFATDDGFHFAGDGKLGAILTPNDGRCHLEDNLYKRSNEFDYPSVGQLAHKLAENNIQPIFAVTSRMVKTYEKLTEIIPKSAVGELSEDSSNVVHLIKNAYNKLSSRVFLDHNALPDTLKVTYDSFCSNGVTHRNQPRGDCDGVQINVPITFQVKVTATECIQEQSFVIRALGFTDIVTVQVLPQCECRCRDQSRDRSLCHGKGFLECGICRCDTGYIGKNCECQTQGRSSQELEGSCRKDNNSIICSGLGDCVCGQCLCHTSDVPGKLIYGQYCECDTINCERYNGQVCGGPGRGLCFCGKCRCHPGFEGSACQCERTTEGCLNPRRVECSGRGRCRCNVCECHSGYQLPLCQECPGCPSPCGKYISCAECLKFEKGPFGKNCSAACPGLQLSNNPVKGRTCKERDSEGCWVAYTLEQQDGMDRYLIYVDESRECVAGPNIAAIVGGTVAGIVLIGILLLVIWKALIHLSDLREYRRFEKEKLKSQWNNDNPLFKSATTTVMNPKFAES
- experimental-protocol: Inhibitory concentration against integrin LFA-1/ICAM-1 binding complex
Reply with just the number (in nM).

The examples below pair each entry with its known result.
compound: CC(C)c1ccccc1Sc1ccc(-c2ccnc(N3CCCC(C(=O)O)C3)c2)cc1C(F)(F)F (stereo in doubt; 16k)
quantity: IC50
value-measured: 43
//
compound: CC(C)c1ccccc1Sc1ccc(-c2cc(N3CCC(c4nn[nH]n4)CC3)ncn2)cc1C(F)(F)F
quantity: IC50
value-measured: 108
//
compound: O=CN1CCN(c2cc(-c3ccc(Sc4ccc5c(c4)OCCO5)c(C(F)(F)F)c3)ccn2)CC1
quantity: IC50
value-measured: 351

Kindly consider the entry below.
Request: Could you share which IC50 value was measured for CCN(CC)C(=O)C1CCCN(c2cc(-c3ccc(Sc4ccccc4C(C)C)c(C(F)(F)F)c3)ncn2)C1 (centres undefined) ?
Result: 620
